molecular target: human alpha 7-wt nAChR (Homo sapiens, UniProt P36544); construct: expressed in transfected cells; test: Ca2+ flux imaging (FDSS) (protocol B); type: cell-based; settings: read-out: % Efficacy
Sequence (P36544 23-502): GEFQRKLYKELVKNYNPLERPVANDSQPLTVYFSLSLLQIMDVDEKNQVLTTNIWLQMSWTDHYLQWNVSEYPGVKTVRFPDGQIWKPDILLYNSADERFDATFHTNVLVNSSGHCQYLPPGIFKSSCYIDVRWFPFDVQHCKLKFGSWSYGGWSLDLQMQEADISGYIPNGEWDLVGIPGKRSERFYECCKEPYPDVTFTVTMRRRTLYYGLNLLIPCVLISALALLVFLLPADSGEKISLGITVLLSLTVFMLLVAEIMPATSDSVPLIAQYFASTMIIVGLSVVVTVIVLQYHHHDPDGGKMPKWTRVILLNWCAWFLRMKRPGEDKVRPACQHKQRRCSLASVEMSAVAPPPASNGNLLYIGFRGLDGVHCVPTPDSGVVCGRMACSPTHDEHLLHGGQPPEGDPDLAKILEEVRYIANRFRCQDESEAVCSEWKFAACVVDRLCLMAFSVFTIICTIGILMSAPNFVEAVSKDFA
MEASUREMENT_KIND: Emax (%)
Answers are plain numbers, in %.

Sample answers from the record:
[
  {
    "SMILES_RECORD": "Cc1cc(-c2c(F)cc(N3C[C@@H](C)O[C@@H](C)C3)cc2CNC(=O)C2CC2)ccn1",
    "VALUE_UNIT": "%",
    "MEASURED_RESULT": 868
  },
  {
    "SMILES_RECORD": "Cc1cc(-c2c(Cl)cc(N3C[C@@H](C)O[C@@H](C)C3)cc2CNC(=O)CC2CC2)cc(C)n1",
    "VALUE_UNIT": "%",
    "MEASURED_RESULT": 624
  },
  {
    "SMILES_RECORD": "Cc1nocc1C(=O)NCc1cc(N2C[C@@H](C)O[C@@H](C)C2)ccc1-c1ccncc1",
    "VALUE_UNIT": "%",
    "MEASURED_RESULT": 681
  },
  {
    "SMILES_RECORD": "Cc1cc(-c2c(F)cc(N3C[C@@H](C)O[C@@H](C)C3)cc2CNC(=O)c2conc2C)cc(C)n1",
    "VALUE_UNIT": "%",
    "MEASURED_RESULT": 572
  },
  {
    "SMILES_RECORD": "Cc1cc(-c2cc(F)c(N3C[C@@H](C)O[C@@H](C)C3)cc2CNC(=O)c2cc(C)on2)cc(C)n1",
    "VALUE_UNIT": "%",
    "MEASURED_RESULT": 554
  },
  {
    "SMILES_RECORD": "O=C(CC1CC1)NCc1cc(N2CCOCC2)ccc1-c1ccncc1",
    "VALUE_UNIT": "%",
    "MEASURED_RESULT": 367
  }
]

Turning now to a further molecule:
Quick check: Emax of "Cc1cc(-c2ccc(N3C[C@H](C(F)(F)F)C[C@H](C(F)(F)F)C3)cc2CNC(=O)CC2CC2)cc(C)n1" ?
458

---

target: human alpha 7-wt nAChR (Homo sapiens, UniProt P36544); construct: expressed in transfected cells; assay: Patch-clamp current recording (whole-cell voltage-clamp, GH4C1 cells); format: cell-based; design: key: Type 0 compounds minimally change the effect size of the current elicited by 1 mM choline.; Type 1 compounds enhance the effect size of the current elicited by 1 mM choline but minimally alter the kinetics of the receptor.; Type 2 compounds enhance the effect size of the current elicited by 1 mM choline while reducing the rate and/or the extent of desensitization.; Type 3 compounds enhance the effect size of the current elicited by 1 mM choline. When tested at higher concentrations up to 10 µM they completely inhibit desensitization; Type 4 compounds allow for an initial desensitization of the receptor followed by a re-opening of the receptor during agonist application; details: current elicited by 1 mM choline
Mark not satisfied for PAM type values under 2, and satisfied for everything at or above.

Solved entries:
[
  {
    "MOLECULE": "Cc1cc(-c2c(F)cc(N3CCO[C@H](C(F)(F)F)C3)cc2CNC(=O)C2CC2)cc(C)n1 [Compound 109]",
    "GROUP": "satisfied"
  },
  {
    "MOLECULE": "Cc1cc(-c2ccc(N3C[C@@H](C)O[C@@H](C)C3)c(CNC(=O)CC3CC3)c2)cc(C)n1 [Compound 132]",
    "GROUP": "satisfied"
  }
]

Could you tell me if the measured PAM type of Cc1cc(-c2c(Cl)cc(N3C[C@@H](C)O[C@@H](C)C3)cc2CNC(=O)c2cc(C)on2)cc(C)n1 [Compound 120] reaches 2 or more?
not satisfied

Then this molecule: Cc1cc(-c2c(F)cc(N3C[C@@H](C)O[C@@H](C)C3)c(F)c2CNC(=O)c2cc(C)on2)cc(C)n1 [Compound 123]
not satisfied

Now give it for Cc1cc(-c2c(F)cc(N3CCO[C@H](C(F)(F)F)C3)cc2CNC(=O)CC(C)C)cc(C)n1 [Compound 110] too.
satisfied

Please answer likewise for Cc1cc(-c2ccc(N3C[C@@H](C)O[C@@H](C)C3)c(CNC(=O)c3conc3C)c2)cc(C)n1 [Compound 136]
satisfied

---

I'd appreciate it if you could supply Emax values for the items below.
target: human alpha 7-wt nAChR (Homo sapiens, UniProt P36544); construct: expressed in transfected cells; experiment: Ca2+ flux imaging (FDSS) (protocol B); format: cell-based; conditions: Ca2+ assay as described in D.1; read-out: % Efficacy
Answers are plain numbers, in %.

Some molecules with known Emax results, for comparison:
[
  {
    "MOLECULE": "Cc1nocc1C(=O)NCc1cc(N2CCOCC2)ccc1-c1ccncc1 [Compound 138]",
    "Emax, %": 386
  },
  {
    "MOLECULE": "Cc1cc(-c2ccc(N3C[C@@H](C)O[C@@H](C)C3)cc2CNC(=O)C(C)C)cc(C)n1 [Compound 2]",
    "Emax, %": 817
  },
  {
    "MOLECULE": "Cc1cc(-c2c(F)cc(N3C[C@@H](C)O[C@@H](C)C3)cc2CNC(=O)CC(F)(F)F)cc(C)n1 [Compound 77]",
    "Emax, %": 136
  }
]

Dear colleague, could you send me Emax for each of the items below? Thanks.
1. Cc1cc(-c2c(F)cc(N3CCCC(C(F)(F)F)C3)cc2CNC(=O)c2conc2C)cc(C)n1 (stereo not shown) [Compound 98]
2. CC(C)C(=O)NCc1cc(N2CCOCC2)ccc1-c1ccncc1 [Compound 137]
3. Cc1cc(-c2ccc(N3C[C@@H](C)O[C@@H](C)C3)cc2CNC(=O)CC(F)(F)F)cc(C)n1 [Compound 7]
4. Cc1cc(-c2ccc(N3CCCC(C(F)(F)F)C3)cc2CNC(=O)C(C)C)cc(C)n1 (stereo not shown) [Compound 36]
5. Cc1cc(-c2c(F)cc(N3CCCC(C(F)(F)F)C3)cc2CNC(=O)C(C)C)cc(C)n1 (stereo not shown) [Compound 96]
6. Cc1cc(-c2ccc(N3CCCC(C(F)(F)F)C3)cc2CNC(=O)c2conc2C)cc(C)n1 (stereo not shown) [Compound 32]
7. Cc1cc(-c2ccc(N3CCOCC3)cc2CNC(=O)C2CC2)cc(C)n1 [Compound 30]
8. Cc1cc(-c2ccc(N3CCOCC3)cc2CNC(=O)c2cc(C)on2)ccn1 [Compound 142]

119
528
287
131
148
72.4
260
545

Items follow; give Emax for each.
1. Cc1cc(-c2ccc(N3CC4CCC(C3)O4)cc2CNC(=O)CC2CC2)cc(C)n1 [Compound 130]
2. Cc1cc(-c2ccc(N3CCOCC3)cc2CNC(=O)CC(F)(F)F)cc(C)n1 [Compound 28]

1: 95.5; 2: 111

---

target: human alpha 7-wt nAChR (Homo sapiens); construct: expressed in transfected cells; experiment: Patch-clamp current recording (whole-cell voltage-clamp, GH4C1 cells); format: cell-based; parameters: key: Type 0 compounds minimally change the effect size of the current elicited by 1 mM choline.; Type 1 compounds enhance the effect size of the current elicited by 1 mM choline but minimally alter the kinetics of the receptor.; Type 2 compounds enhance the effect size of the current elicited by 1 mM choline while reducing the rate and/or the extent of desensitization.; Type 3 compounds enhance the effect size of the current elicited by 1 mM choline. When tested at higher concentrations up to 10 µM they completely inhibit desensitization; Type 4 compounds allow for an initial desensitization of the receptor followed by a re-opening of the receptor during agonist application; settings: current elicited by 1 mM choline
MEASUREMENT_KIND: PAM type
Answers are plain numbers.

Here's what some known entries look like.
[
  {
    "MOLECULE": "Cc1cc(-c2c(F)cc(N3CCO[C@H](C(F)(F)F)C3)cc2CNC(=O)c2conc2C)cc(C)n1",
    "MEASURED_RESULT": 2
  },
  {
    "MOLECULE": "Cc1cc(-c2c(F)cc(N3CCO[C@H](C(F)(F)F)C3)cc2CNC(=O)CC2CC2)cc(C)n1",
    "MEASURED_RESULT": 2
  },
  {
    "MOLECULE": "Cc1cc(-c2c(F)cc(N3CCO[C@H](C(F)(F)F)C3)cc2CNC(=O)C(C)C)cc(C)n1",
    "MEASURED_RESULT": 2
  },
  {
    "MOLECULE": "Cc1cc(-c2c(F)cc(N3C[C@@H](C)O[C@@H](C)C3)cc2CNC(=O)c2conc2C)ccn1",
    "MEASURED_RESULT": 2
  }
]

Please give PAM type for each item listed below.
1. Cc1cc(-c2c(F)cc(N3CCOC(C)C3)cc2CNC(=O)CC2CCC2)cc(C)n1 (stereo not shown)
2. Cc1cc(-c2c(F)cc(N3CCO[C@@H](C(F)(F)F)C3)cc2CNC(=O)C2CC2)cc(C)n1
3. Cc1cc(-c2c(F)cc(N3CCOC(C)C3)cc2CNC(=O)C2CC2)cc(C)n1 (stereo not shown)

3
3
2

Sourced from patent EP2678315B1
